The reported measurements were obtained from PubChem BioAssay (EPA / NIEHS).

Read-out: Interleukin-8 (IL8), CXCL8 (gene 3576)
procedure.summary: BSK_CASM3C_IL8: BioMAP Diversity Plus: CASM3C Assay for Interleukin-8 (IL8) Biomarker Activity (AID 2283042);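 note: IL-8 protein level quantified by ELISA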
measurement.setup: primary human coronary artery smooth muscle cells; actives raise or lower the signal
The source made the active and inactive calls. Rule for the calls: active = hit-call score of the fitted dose curve at least 0.9, where 1 is the maximum; inactive = score below 0.9.
Labels: yes for active, no for inactive

compound	assigned.label
CC(C)(c1cc(Cl)c(O)c(Cl)c1)c1cc(Cl)c(O)c(Cl)c1	no
CC1(C)[C@H](C(=O)O[C@H](C#N)c2cccc(Oc3ccccc3)c2)[C@@H]1C=C(Br)Br	no
O=c1[nH]c(Cl)c(Cl)cc1Cl	no
O=C(CCl)c1ccccc1	yes
O=[N+]([O-])C=Cc1ccccc1	yes
c1ccc(Nc2ccc3ccccc3c2)cc1	no
Cc1ccc(OP(=O)(Oc2ccc(C)cc2)Oc2ccc(C)cc2)cc1 (tested in a mixture with another compound)	no
CCC(C)c1cc([N+](=O)[O-])cc([N+](=O)[O-])c1OC(=O)C=C(C)C (stereo not drawn)	yes
C=CC(=O)OCC(CC)CCCC (stereo not drawn)	no
N#CCCCCC#N	no
CCCOC(=O)c1ccccc1C(=O)OCCC	no
COCC(=O)N(c1c(C)cccc1C)N1CCOC1=O	no
Nc1ccc(-c2ccc(N)c(N)c2)cc1N	no
O=S(=O)(c1ccccc1)c1ccccc1	no
CC(C)(C)C(O)C(Oc1ccc(-c2ccccc2)cc1)n1cncn1 (stereo not drawn)	no
O=C1C(Cl)=C(Cl)C(=O)C(Cl)=C1Cl	no
CC(C)CCCCCCCOC(=O)c1ccccc1C(=O)OCCCCCCCC(C)C	no
COc1ccc(CO)cc1	no
CNC(=O)Oc1cc(C)c(SC)c(C)c1	no
CC(C)CCCCCCCOP(=O)(Oc1ccccc1)Oc1ccccc1	no
O=P1(NCCCl)OCCCN1CCCl (stereo not drawn)	no
O=[N+]([O-])c1ccc(Cl)cc1	no
CCc1cc(C)cc(CC)c1-c1c(OC(=O)C(C)(C)C)n2n(c1=O)CCOCC2	no

* * *

study.target: human Peroxisome Proliferator-activated Receptor delta (PPARd), PPARD (gene 5467) (UniProt Q03181)
Sequence (Q03181 whole entry, looked up): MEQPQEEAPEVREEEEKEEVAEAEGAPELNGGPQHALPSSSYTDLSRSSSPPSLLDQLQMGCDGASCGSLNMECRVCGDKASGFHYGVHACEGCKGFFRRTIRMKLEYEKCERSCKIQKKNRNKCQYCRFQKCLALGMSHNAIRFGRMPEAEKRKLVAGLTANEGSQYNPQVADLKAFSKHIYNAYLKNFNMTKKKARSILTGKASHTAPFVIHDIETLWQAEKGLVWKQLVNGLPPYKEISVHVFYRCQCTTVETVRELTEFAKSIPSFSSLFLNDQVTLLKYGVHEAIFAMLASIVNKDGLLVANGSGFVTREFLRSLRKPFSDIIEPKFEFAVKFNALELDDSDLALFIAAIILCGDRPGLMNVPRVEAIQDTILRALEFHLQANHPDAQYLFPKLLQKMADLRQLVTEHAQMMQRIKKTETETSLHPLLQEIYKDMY
procedure.summary: ATG_PPARd_TRANS: Attagene TRANS-FACTORIAL HepG2 Assay for human Peroxisome Proliferator-activated Receptor delta (PPARd) (AID 2283002)
Records with an inconclusive call do not appear. Active and inactive are the calls of the source. The calls were made as follows: active = hit-call score of the fitted dose curve at least 0.9, where 1 is the maximum; inconclusive = response in the unintended direction; inactive = score below 0.9.

structure.string	outcome
CCc1cc(C)cc(CC)c1-c1c(OC(=O)C(C)(C)C)n2n(c1=O)CCOCC2	inactive
O=S(=O)(O)OOS(=O)(=O)O	inactive
N#CC(c1ccccc1)c1ccccc1	inactive
CCCCCc1cc(O)cc(O)c1	inactive
C[C@]12CC[C@H](O)C[C@H]1CC[C@@H]1[C@@H]2C[C@@H](O)[C@]2(C)[C@@H](C3=CC(=O)OC3)CC[C@]12O	inactive
C=CC(=O)OCCO	inactive

* * *

procedure.summary: ATG_CRE_CIS: Attagene CIS-FACTORIAL HepG2 Assay for human cAMP Responsive Element (CRE) binding protein 3 (AID 2282926)
measurement.setup: HepG2 CRE cis-reporter, Attagene multiplexed mRNA; actives raise or lower the signal
Active and inactive are the calls of the source. The calls were made as follows: active = hit-call score of the fitted dose curve at least 0.9, where 1 is the maximum; inactive = score below 0.9.
Possible outcomes: active, inactive

molecule	assigned.label
C=CC(=O)OCCO	active
C=C(Cl)Cl	inactive
O=P1(NCCCl)OCCCN1CCCl (stereo not drawn)	inactive
CCCCCCCCCCCCCCCC[N+](C)(C)C	active
CC1CCCC1.[C-]#[O+].[C-]#[O+].[C-]#[O+].[Mn]	inactive
CCOP(=O)(OCC)OCC	inactive
C[N+](C)=CCl	inactive
c1cc(OCC2CO2)ccc1Cc1ccc(OCC2CO2)cc1 (stereo not drawn)	active
